- tgt: T1, cynomolgus (Macaca fascicularis) ST2L extracellular domain with C-terminal His6 tag (Macaca fascicularis (cynomolgus), UniProt Q01638 19-321 (human entry))
- T1 construct: also called cyno ST2L-ECD; cynoST2L-ECD
- T1 chain: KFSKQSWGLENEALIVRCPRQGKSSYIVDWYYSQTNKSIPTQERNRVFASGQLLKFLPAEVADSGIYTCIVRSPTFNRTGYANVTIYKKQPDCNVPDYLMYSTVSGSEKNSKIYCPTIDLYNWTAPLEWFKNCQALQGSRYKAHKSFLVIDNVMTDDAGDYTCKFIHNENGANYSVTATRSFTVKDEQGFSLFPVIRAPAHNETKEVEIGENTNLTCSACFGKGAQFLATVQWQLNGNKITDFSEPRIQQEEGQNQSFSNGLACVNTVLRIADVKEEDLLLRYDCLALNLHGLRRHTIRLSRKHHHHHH
- protocol: ProteOn SPR, mAb captured, ST2L-ECD in solution
result type: kon
Answer shape: numeric part, then the unit.

Data request, read-out kon, for STLM201 (antibody, V domains shown, C2494 HFA mAb: VH STLH194 + VL STLL276 (L12)) VH: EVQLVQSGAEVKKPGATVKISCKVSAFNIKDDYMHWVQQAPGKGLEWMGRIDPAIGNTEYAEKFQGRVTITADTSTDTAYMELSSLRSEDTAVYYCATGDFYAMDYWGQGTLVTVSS VL: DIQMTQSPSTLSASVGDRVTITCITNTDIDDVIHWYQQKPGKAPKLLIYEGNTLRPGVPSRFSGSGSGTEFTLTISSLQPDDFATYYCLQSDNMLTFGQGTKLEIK
3.55e+07 M⁻¹ s⁻¹

Data request, read-out kon, for STLM197 (antibody, V domains shown, C2494 HFA mAb: VH STLH194 (IGHV1-f*01) + VL STLL280 (O12b)) VH: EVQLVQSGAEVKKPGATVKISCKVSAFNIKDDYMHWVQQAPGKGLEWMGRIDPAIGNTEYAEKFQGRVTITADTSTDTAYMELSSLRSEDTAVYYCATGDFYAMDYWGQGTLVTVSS VL: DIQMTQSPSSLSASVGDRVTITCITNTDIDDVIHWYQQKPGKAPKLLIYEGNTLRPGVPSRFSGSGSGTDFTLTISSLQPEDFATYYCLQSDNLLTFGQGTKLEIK
2.97e+07 M⁻¹ s⁻¹

Data request, read-out kon, for STLM203 (antibody, V domains shown, C2494 HFA mAb: VH STLH194 + VL STLL274 (O12)) VH: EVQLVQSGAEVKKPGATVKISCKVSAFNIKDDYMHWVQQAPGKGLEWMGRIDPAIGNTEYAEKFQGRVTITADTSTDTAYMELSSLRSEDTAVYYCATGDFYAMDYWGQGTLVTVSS VL: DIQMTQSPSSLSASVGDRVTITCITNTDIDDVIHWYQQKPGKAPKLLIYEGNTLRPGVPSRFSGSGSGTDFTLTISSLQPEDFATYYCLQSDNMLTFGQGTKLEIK
5.88e+07 M⁻¹ s⁻¹
